test: AUC in rat at 3 mg/kg, po; assay type: ADME, organism-based; parameters: dose 3 mg/kg, route oral; conditions: plasma
VALUE_KIND: AUC (ng·h/mL)
Answers are plain numbers, in ng·h/mL.

Fill in: AUC of Cc1ccc2c3c(ccc2n1)OC[C@H](CN1CCN(c2ccc4cc(C#N)ccc4n2)CC1)O3 is ___
2320

---

target: D(2) dopamine receptor (Homo sapiens, UniProt P14416); assay: Displacement of [3H]spiperone from human dopamine D2 receptor expressed in CHO cells; type: cell-based
Sequence (P14416 whole entry): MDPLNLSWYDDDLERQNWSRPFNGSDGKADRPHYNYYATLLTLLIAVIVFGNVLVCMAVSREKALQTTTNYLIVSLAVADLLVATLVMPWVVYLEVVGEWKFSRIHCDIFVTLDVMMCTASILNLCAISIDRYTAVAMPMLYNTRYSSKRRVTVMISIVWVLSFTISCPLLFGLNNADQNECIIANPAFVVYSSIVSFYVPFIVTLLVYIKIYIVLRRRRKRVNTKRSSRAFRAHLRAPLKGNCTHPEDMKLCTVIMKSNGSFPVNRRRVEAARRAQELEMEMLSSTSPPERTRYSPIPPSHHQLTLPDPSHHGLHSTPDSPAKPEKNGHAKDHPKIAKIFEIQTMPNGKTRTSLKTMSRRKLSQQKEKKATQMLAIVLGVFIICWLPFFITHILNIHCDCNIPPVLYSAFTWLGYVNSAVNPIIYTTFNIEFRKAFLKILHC
VALUE_KIND: pKi
Give bare numbers, as −log10 of the molar value.

Identify the measured pKi of Cc1ccc2c3c(ccc2n1)OC[C@H](CN1CCN(c2ccc4cc(C#N)ccc4n2)CC1)O3 for D(2) dopamine receptor (Homo sapiens, UniProt P14416).
5.88

---

experiment: Oral bioavailability in rat at 10 mg/kg; format: ADME, organism-based; conditions: in vivo
VALUE_KIND: bioavailability (%)
Give bare numbers, in %.

Fill in: bioavailability of Cc1ccc2c3c(ccc2n1)OC[C@H](CN1CCN(c2ccc4cc(C#N)ccc4n2)CC1)O3 is ___
36

---

Molecular target: 5-hydroxytryptamine receptor 1A (Homo sapiens)
Sequence (whole entry): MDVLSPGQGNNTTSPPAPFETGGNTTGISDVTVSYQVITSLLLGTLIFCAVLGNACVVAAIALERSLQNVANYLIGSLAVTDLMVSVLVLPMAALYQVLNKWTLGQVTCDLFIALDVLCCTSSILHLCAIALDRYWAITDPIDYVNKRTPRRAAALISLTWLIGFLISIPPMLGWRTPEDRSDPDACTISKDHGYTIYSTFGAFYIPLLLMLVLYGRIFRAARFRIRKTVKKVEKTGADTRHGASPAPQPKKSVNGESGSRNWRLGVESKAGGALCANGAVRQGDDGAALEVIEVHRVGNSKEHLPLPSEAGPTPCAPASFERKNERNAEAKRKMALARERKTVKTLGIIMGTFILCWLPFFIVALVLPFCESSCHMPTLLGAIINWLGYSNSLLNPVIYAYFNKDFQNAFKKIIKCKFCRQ
Experiment: Antagonist activity at human 5HT1A receptor expressed in CHO cells assessed as inhibition of [35S]GTPgammaS binding relative to control
Format: functional, cell-based
Rule: 1 for Imax not less than 80%, -1 for anything less.

Solved entries:
1. Cc1ccc2c3c(ccc2n1)OC[C@H](CN1CCN(c2ccc4cc(F)ccc4n2)CC1)O3 : 1
2. Cc1ccc2c3c(ccc2n1)OC[C@H](CN1CCCN(c2ccc4cc(F)ccc4n2)CC1)O3 : -1
3. Cc1ccc2c3c(ccc2n1)OC[C@H](CN1CCN(c2ccc4cc(OC(F)(F)F)ccc4n2)CC1)O3 : 1
4. Cc1ccc2c3c(ccc2n1)OC[C@H](CN1CCN(c2ccc4cc(Br)ccc4n2)CC1)O3 : 1

With those in mind, consider the next compound.
Dear colleague, could you confirm whether Cc1ccc2c3c(ccc2n1)OC[C@H](CN1CCN(c2ccc4cc(C(N)=O)ccc4n2)CC1)O3 has Imax at or above 80%?
1

---

// endpoint log10 of IC50 / system 5-hydroxytryptamine receptor 1A (Homo sapiens)
Recall that a logarithmic scale is used here: each number is log10 of IC50 in nM.

The cases that follow already have their log10 of IC50 on record.
1) Cc1ccc2c3c(ccc2n1)OC[C@H](CN1CCN(c2ccc4cc(C(N)=O)ccc4n2)CC1)O3 : 2.21
2) Cc1ccc2c3c(ccc2n1)OC[C@H](CN1CCN(c2ccc4cc(Cl)ccc4n2)CC1)O3 : 2.89
3) Cc1ccc2c3c(ccc2n1)OC[C@H](CN1CCN(c2ccc4ccccc4n2)C[C@@H]1C)O3 : 3.28
4) Cc1ccc2c3c(ccc2n1)OC[C@H](CN1CCN(c2ccc4cc(C#N)ccc4n2)C[C@H]1C)O3 : 2.26
5) Cc1ccc2c3c(ccc2n1)OC[C@H](CN1CCN(c2ccc4cc(Br)ccc4n2)CC1)O3 : 2.19
6) Cc1ccc2c3c(ccc2n1)OC[C@H](CN1CCCN(c2ccc4ccccc4n2)CC1)O3 : 1.85

Fill in: log10 of IC50 of Cc1ccc2c3c(ccc2n1)OC[C@H](CN1CC=C(c2c[nH]c4ccccc24)CC1)O3 is ___
1.75

---

assay: Cmax in rat at 10 mg/kg, po; assay type: ADME, organism-based; design: dose 10 mg/kg, route oral; settings: in vivo
VALUE_KIND: Cmax (ng/mL)
Give bare numbers, in ng/mL.

Fill in: Cmax of Cc1ccc2c3c(ccc2n1)OC[C@H](CN1CCN(c2ccc4cc(C#N)ccc4n2)CC1)O3 is ___
815

---

test: Oral bioavailability in rat at 3 mg/kg; assay type: ADME, organism-based; conditions: in vivo
VALUE_KIND: bioavailability (%)
Give bare numbers, in %.

Fill in: bioavailability of Cc1ccc2c3c(ccc2n1)OC[C@H](CN1CCN(c2ccc4cc(C#N)ccc4n2)CC1)O3 is ___
61

---

molecular target: UniProt:P31652
Sequence (P31652 whole entry): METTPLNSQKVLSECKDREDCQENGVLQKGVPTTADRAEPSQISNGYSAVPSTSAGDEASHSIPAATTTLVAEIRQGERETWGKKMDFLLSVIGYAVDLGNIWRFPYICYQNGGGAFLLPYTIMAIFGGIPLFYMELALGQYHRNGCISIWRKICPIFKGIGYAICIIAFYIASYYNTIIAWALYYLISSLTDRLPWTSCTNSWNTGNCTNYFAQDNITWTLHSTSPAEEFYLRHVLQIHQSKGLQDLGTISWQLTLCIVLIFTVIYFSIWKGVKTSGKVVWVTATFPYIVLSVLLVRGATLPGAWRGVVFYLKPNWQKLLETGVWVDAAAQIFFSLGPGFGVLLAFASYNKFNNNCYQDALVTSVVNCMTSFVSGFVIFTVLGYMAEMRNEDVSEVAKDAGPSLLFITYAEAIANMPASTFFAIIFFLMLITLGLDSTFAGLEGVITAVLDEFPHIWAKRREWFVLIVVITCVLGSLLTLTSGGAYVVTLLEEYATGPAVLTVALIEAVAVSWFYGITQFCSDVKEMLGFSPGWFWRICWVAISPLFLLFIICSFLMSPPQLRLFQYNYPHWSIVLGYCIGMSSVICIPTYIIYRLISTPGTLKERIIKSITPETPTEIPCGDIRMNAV
pKi: −log10 of the molar value.
Rule: Yes for pKi not less than 8, No for anything less.

Dear colleague, could you confirm whether Cc1ccc2c3c(ccc2n1)OC[C@H](CN1CC=C(c2c[nH]c4ccccc24)CC1)O3 has pKi at or above 8?
Yes

Dear colleague, could you confirm whether Cc1ccc2c3c(ccc2n1)OC[C@H](CN1CCN(c2ccc4cc(OC(F)(F)F)ccc4n2)CC1)O3 has pKi at or above 8?
No

Dear colleague, could you confirm whether Cc1ccc2c3c(ccc2n1)OC[C@H](CN1CCN(c2ccc4cc(C#N)ccc4n2)C[C@H]1C)O3 has pKi at or above 8?
No

Dear colleague, could you confirm whether Cc1ccc2c3c(ccc2n1)OC[C@H](CN1CCN(c2ccc4cc(Cl)ccc4n2)CC1)O3 has pKi at or above 8?
Yes

Dear colleague, could you confirm whether Cc1ccc2c3c(ccc2n1)OC[C@H](CN1CCCN(c2ccc4cc(F)ccc4n2)CC1)O3 has pKi at or above 8?
Yes

---

Please go through the items and note down their Ki.
Molecular target: 5-hydroxytryptamine receptor 1A (Homo sapiens, UniProt P08908)
Sequence (P08908 whole entry): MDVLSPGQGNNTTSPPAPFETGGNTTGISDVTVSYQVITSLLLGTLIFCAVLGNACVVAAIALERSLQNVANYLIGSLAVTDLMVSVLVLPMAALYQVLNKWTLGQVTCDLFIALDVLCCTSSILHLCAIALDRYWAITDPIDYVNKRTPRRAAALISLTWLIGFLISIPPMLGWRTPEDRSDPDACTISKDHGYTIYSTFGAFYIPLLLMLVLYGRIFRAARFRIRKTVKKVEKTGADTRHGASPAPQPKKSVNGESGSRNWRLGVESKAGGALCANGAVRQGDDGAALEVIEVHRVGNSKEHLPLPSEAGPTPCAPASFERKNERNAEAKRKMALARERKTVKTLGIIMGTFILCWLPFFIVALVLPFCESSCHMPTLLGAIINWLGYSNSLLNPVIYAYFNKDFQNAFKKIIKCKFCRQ
Give bare numbers, in nM.

1. Cc1ccc2c3c(ccc2n1)OC[C@H](CN1CCCN(c2ccc4cc(C#N)ccc4n2)CC1)O3 : 2
2. Cc1ccc2c3c(ccc2n1)OC[C@H](CN1CCN(c2ccc4cc(F)ccc4n2)CC1)O3 : 32.9

Shifting focus to the molecule that follows.
Fill in: Ki of Cc1ccc2c3c(ccc2n1)OC[C@H](CN1CC=C(c2c[nH]c4ccccc24)CC1)O3 is ___
3.02

---

Please go through the items and note down their Imax.
target: 5-hydroxytryptamine receptor 1A (Homo sapiens); assay: Antagonist activity at human 5HT1A receptor expressed in CHO cells assessed as inhibition of [35S]GTPgammaS binding relative to control; assay type: functional, cell-based
Numbers only, in %.

The cases that follow already have their Imax on record.
1) Cc1ccc2c3c(ccc2n1)OC[C@H](CN1CCN(c2ccc4cc(C#N)ccc4n2)C[C@H]1C)O3 : 92
2) Cc1ccc2c3c(ccc2n1)OC[C@H](CN1CCN(c2ccc4cc(C#N)ccc4n2)CC1)O3 : 88.6

Please give Imax for each item listed below.
1. Cc1ccc2c3c(ccc2n1)OC[C@H](CN1CCCN(c2ccc4cc(C#N)ccc4n2)CC1)O3
2. Cc1ccc2c3c(ccc2n1)OC[C@H](CN1CCN(c2ccc4cc(Cl)ccc4n2)CC1)O3
3. Cc1ccc2c3c(ccc2n1)OC[C@H](CN1CCN(c2ccc4ccccc4n2)C[C@H]1C)O3
4. Cc1ccc2c3c(ccc2n1)OC[C@H](CN1CCN(c2ccc4ccccc4n2)CC1)O3
5. Cc1ccc2c3c(ccc2n1)OC[C@H](CN1CCN(c2ccc4cc([N+](=O)[O-])ccc4n2)CC1)O3
6. Cc1ccc2c3c(ccc2n1)OC[C@H](CN1CCN(c2ccc4ccccc4n2)C[C@@H]1C)O3
7. Cc1ccc2c3c(ccc2n1)OC[C@H](CN1CCCN(c2ccc4ccccc4n2)CC1)O3
8. Cc1ccc2c3c(ccc2n1)OC[C@H](CN1CC=C(c2c[nH]c4ccccc24)CC1)O3

53
62
85
100
79
76.5
58
98.3
